test: Tanguay_ZF_120hpf_PE_legacy: (Legacy) Oregon State University Tanguay Lab 120 Hour Post-fertilization zebrafish Assay for Pericardial Edema (AID 2283640)
Inconclusive results are not listed. Activity calls are given as the source filed them. Rule for the calls: active = hit-call score of the fitted dose curve at least 0.9, where 1 is the maximum; inconclusive = response in the unintended direction; inactive = score below 0.9.
Outcome codes: true (1) (active), false (0) (inactive)

Compound	Assigned Class
Oc1ccc(Cl)cc1Cl	false (0)
CCNc1nc(NC(C)C)nc(SC)n1	false (0)
CCCCCCCCCc1ccc(O)cc1	false (0)
CC(C)(O)C(=O)Nc1ccc([N+](=O)[O-])c(C(F)(F)F)c1	true (1)
CCCN(CCC)N=O	false (0)
CCC(C)(CC)c1cc(NC(=O)c2c(OC)cccc2OC)on1	false (0)
ClC1=C(Cl)[C@]2(Cl)[C@@H]3[C@H]4C[C@H]([C@@H]5O[C@H]45)[C@@H]3[C@@]1(Cl)C2(Cl)Cl	true (1)
Clc1ccc(Cl)cc1	false (0)
Cc1cccc(C)c1N	false (0)
Clc1ccc(C(c2ccccc2Cl)C(Cl)(Cl)Cl)cc1 (centres undefined)	false (0)
Cc1ccc(O)c(C)c1	false (0)
Cc1ccccc1[N+](=O)[O-]	false (0)
CCC(C)(c1ccc(O)cc1)c1ccc(O)cc1	true (1)
Oc1ccc(C(c2ccc(O)cc2)(C(F)(F)F)C(F)(F)F)cc1	true (1)
